assay-text: Protein binding in BALB/c mouse plasma assessed as unbound fraction by ultracentrifugation
Assay type: ADME, cell-free
Please respond with reported fraction unbound for every item in the list.
API note: the answer field is a bare number with no unit suffix.

Note down fraction unbound recorded for C=CC(=O)N1CCN(c2nc(=O)n(-c3c(C)cccc3C(C)C)c3nc(-c4c(O)cccc4F)c(Cl)cc23)[C@@H](C)C1
0.03

Note down fraction unbound recorded for C=CC(=O)N1CCN(c2nc(=O)n(-c3c(C(C)C)ncnc3C(C)C)c3nc(-c4c(O)cccc4F)c(Cl)cc23)[C@@H](C)C1
0.03

Note down fraction unbound recorded for C=CC(=O)N1CCN(c2nc(=O)n(-c3scnc3C(C)C)c3nc(-c4c(O)cccc4F)c(Cl)cc23)[C@@H](C)C1
0.02

Note down fraction unbound recorded for C=CC(=O)N1CCN(c2nc(=O)n(-c3c(CC)cccc3CC)c3nc(-c4c(O)cccc4F)c(Cl)cc23)[C@@H](C)C1
0.03

Note down fraction unbound recorded for C=CC(=O)N1CCN(c2nc(=O)n(-c3c(C4CC4)ncnc3C3CC3)c3nc(-c4c(O)cccc4F)c(Cl)cc23)[C@@H](C)C1
0.08

----------
assay-text: Clearance in BALB/c mouse at 1 mg/kg, iv or 10 mg/kg, po
Type: ADME, organism-based
recorded-conditions: in vivo
readout: clearance (mL/min/kg)
Give the value, in units of mL/min/kg, as a plain number.

Note down clearance recorded for C=CC(=O)N1CCN(c2nc(=O)n(-c3c(C)ccnc3C(C)C)c3nc(-c4c(O)cccc4F)c(F)cc23)[C@@H](C)C1
26.7

Note down clearance recorded for C=CC(=O)N1CCN(c2nc(=O)n(-c3scnc3C(C)C)c3nc(-c4c(O)cccc4F)c(Cl)cc23)[C@@H](C)C1
36.7

Note down clearance recorded for C=CC(=O)N1CCN(c2nc(=O)n(-c3c(C(C)C)ccnc3C)c3nc(-c4c(O)cccc4F)c(Cl)cc23)[C@@H](C)C1
23.3

Note down clearance recorded for C=CC(=O)N1CCN(c2nc(=O)n(-c3ccccc3C(C)C)c3nc(-c4ccccc4Cl)c(Cl)cc23)[C@@H](C)C1
90

Note down clearance recorded for C=CC(=O)N1CCN(c2nc(=O)n(-c3c(C)ccnc3C(C)C)c3nc(-c4c(O)cccc4F)c(Cl)cc23)[C@@H](C)C1
65

Note down clearance recorded for C=CC(=O)N1CCN(c2nc(=O)n(-c3ccccc3C(C)C)c3cc(-c4c(C)ccc5[nH]ncc45)c(Cl)cc23)CC1
70

Note down clearance recorded for C=CC(=O)N1CCN(c2nc(=O)n(-c3ccccc3C(C)C)c3nc(-c4ccccc4O)c(Cl)cc23)[C@@H](C)C1
28.3

Note down clearance recorded for C=CC(=O)N1CCN(c2nc(=O)n(-c3c(C(C)C)ncnc3C(C)C)c3nc(-c4c(O)cccc4F)c(Cl)cc23)[C@@H](C)C1
38.3

Note down clearance recorded for C=CC(=O)N1CCN(c2nc(=O)n(-c3c(C4CC4)ncnc3C3CC3)c3nc(-c4c(O)cccc4F)c(Cl)cc23)[C@@H](C)C1
55

Note down clearance recorded for C=CC(=O)N1CCN(c2nc(=O)n(-c3ccccc3C(C)C)c3nc(-c4c(O)cccc4F)c(Cl)cc23)CC1
13.3

Note down clearance recorded for C=CC(=O)N1CCN(c2nc(=O)n(-c3ccccc3C(C)C)c3nc(-c4ccccc4F)c(Cl)cc23)[C@@H](C)C1
60

Note down clearance recorded for C=CC(=O)N1CCN(c2nc(=O)n(-c3c(C)ncnc3C(C)C)c3nc(-c4c(O)cccc4F)c(Cl)cc23)[C@@H](C)C1
58.3

Note down clearance recorded for C=CC(=O)N1CCN(c2nc(=O)n(-c3c(C(C)C)ccnc3C)c3nc(-c4c(O)cccc4F)c(F)cc23)[C@@H](C)C1
61.7

Note down clearance recorded for C=CC(=O)N1CCN(c2nc(=O)n(-c3ccccc3C(C)C)c3nc(-c4c(O)cccc4F)c(Cl)cc23)[C@@H](C)C1 (stereo in doubt; (R)-18)
6.67

Note down clearance recorded for C=CC(=O)N1CCN(c2nc(=O)n(-c3c(C)ncnc3C(C)C)c3nc(-c4c(O)cccc4F)c(F)cc23)[C@@H](C)C1
78.3

Note down clearance recorded for C=CC(=O)N1CCN(c2nc(=O)n(-c3ccccc3C(C)C)c3cc(-c4ccccc4F)c(Cl)cc23)[C@@H](C)C1
26.7

Note down clearance recorded for C=CC(=O)N1CCN(c2nc(=O)n(-c3c(C)cccc3C(C)C)c3nc(-c4c(O)cccc4F)c(F)cc23)[C@@H](C)C1
33.3

Note down clearance recorded for C=CC(=O)N1CCN(c2nc(=O)n(-c3ccccc3C(C)C)c3cc(-c4c(O)cccc4F)c(Cl)cc23)CC1
5

Note down clearance recorded for C=CC(=O)N1CCN(c2nc(=O)n(-c3c(CC)cccc3CC)c3nc(-c4c(O)cccc4F)c(Cl)cc23)[C@@H](C)C1
55

----------
assay-text: Volume of distribution at steady state in BALB/c mouse at 1 mg/kg, iv or 10 mg/kg, po
Type: ADME, organism-based
recorded-conditions: in vivo, read-out: Vdss
Please respond with reported Vd for every item in the list.

Note down Vd recorded for C=CC(=O)N1CCN(c2nc(=O)n(-c3c(C(C)C)ccnc3C)c3nc(-c4c(O)cccc4F)c(F)cc23)[C@@H](C)C1
1.1 L/kg

Note down Vd recorded for C=CC(=O)N1CCN(c2nc(=O)n(-c3c(C)cccc3C(C)C)c3nc(-c4c(O)cccc4F)c(F)cc23)[C@@H](C)C1
1.1 L/kg

Note down Vd recorded for C=CC(=O)N1CCN(c2nc(=O)n(-c3c(C)ncnc3C(C)C)c3nc(-c4c(O)cccc4F)c(Cl)cc23)[C@@H](C)C1
0.4 L/kg

Note down Vd recorded for C=CC(=O)N1CCN(c2nc(=O)n(-c3ccccc3C(C)C)c3nc(-c4ccccc4O)c(Cl)cc23)[C@@H](C)C1
0.8 L/kg

Note down Vd recorded for C=CC(=O)N1CCN(c2nc(=O)n(-c3ccccc3C(C)C)c3nc(-c4ccccc4Cl)c(Cl)cc23)[C@@H](C)C1
4.8 L/kg

Note down Vd recorded for C=CC(=O)N1CCN(c2nc(=O)n(-c3ccccc3C(C)C)c3cc(-c4c(O)cccc4F)c(Cl)cc23)CC1
0.8 L/kg

Note down Vd recorded for C=CC(=O)N1CCN(c2nc(=O)n(-c3ccccc3C(C)C)c3nc(-c4c(O)cccc4F)c(Cl)cc23)CC1
0.5 L/kg

Note down Vd recorded for C=CC(=O)N1CCN(c2nc(=O)n(-c3c(C)ccnc3C(C)C)c3nc(-c4c(O)cccc4F)c(F)cc23)[C@@H](C)C1 [SOTORASIB]
0.7 L/kg

Note down Vd recorded for C=CC(=O)N1CCN(c2nc(=O)n(-c3ccccc3C(C)C)c3cc(-c4c(C)ccc5[nH]ncc45)c(Cl)cc23)CC1
5.3 L/kg

Note down Vd recorded for C=CC(=O)N1CCN(c2nc(=O)n(-c3c(C)ccnc3C(C)C)c3nc(-c4c(O)cccc4F)c(Cl)cc23)[C@@H](C)C1
0.8 L/kg

Note down Vd recorded for C=CC(=O)N1CCN(c2nc(=O)n(-c3c(C)ncnc3C(C)C)c3nc(-c4c(O)cccc4F)c(F)cc23)[C@@H](C)C1
1.7 L/kg

Note down Vd recorded for C=CC(=O)N1CCN(c2nc(=O)n(-c3ccccc3C(C)C)c3nc(-c4c(O)cccc4F)c(Cl)cc23)[C@@H](C)C1 (stereo in doubt; (R)-18)
0.4 L/kg

Note down Vd recorded for C=CC(=O)N1CCN(c2nc(=O)n(-c3ccccc3C(C)C)c3cc(-c4ccccc4F)c(Cl)cc23)[C@@H](C)C1
1.4 L/kg

Note down Vd recorded for C=CC(=O)N1CCN(c2nc(=O)n(-c3ccccc3C(C)C)c3nc(-c4ccccc4F)c(Cl)cc23)[C@@H](C)C1
2.3 L/kg

Note down Vd recorded for C=CC(=O)N1CCN(c2nc(=O)n(-c3c(C(C)C)ccnc3C)c3nc(-c4c(O)cccc4F)c(Cl)cc23)[C@@H](C)C1
1.4 L/kg

----------
assay-text: Volume of distribution at steady state in Sprague-Dawley rat at 1 mg/kg, iv or 10 mg/kg, po
Assay type: ADME, organism-based
recorded-conditions: in vivo, read-out: Vdss
readout: Vd (L/kg)
Give the value, in units of L/kg, as a plain number.

Note down Vd recorded for C=CC(=O)N1CCN(c2nc(=O)n(-c3c(C)ccnc3C(C)C)c3nc(-c4c(O)cccc4F)c(F)cc23)[C@@H](C)C1 [SOTORASIB]
2

----------
assay-text: Half life in BALB/c mouse at 1 mg/kg, iv or 10 mg/kg, po
Format: ADME, organism-based
recorded-conditions: in vivo
Could you label it met if measured half-life is 40 min or higher, and not met otherwise?

hey, is half-life for this one >= 40 min? C=CC(=O)N1CCN(c2nc(=O)n(-c3ccccc3C(C)C)c3nc(-c4ccccc4F)c(Cl)cc23)[C@@H](C)C1
not met

hey, is half-life for this one >= 40 min? C=CC(=O)N1CCN(c2nc(=O)n(-c3c(C)ccnc3C(C)C)c3nc(-c4c(O)cccc4F)c(Cl)cc23)[C@@H](C)C1
not met

hey, is half-life for this one >= 40 min? C=CC(=O)N1CCN(c2nc(=O)n(-c3ccccc3C(C)C)c3nc(-c4c(O)cccc4F)c(Cl)cc23)[C@@H](C)C1 (stereo in doubt; (R)-18)
met

hey, is half-life for this one >= 40 min? C=CC(=O)N1CCN(c2nc(=O)n(-c3c(C)ncnc3C(C)C)c3nc(-c4c(O)cccc4F)c(F)cc23)[C@@H](C)C1
not met

hey, is half-life for this one >= 40 min? C=CC(=O)N1CCN(c2nc(=O)n(-c3c(C)cccc3C(C)C)c3nc(-c4c(O)cccc4F)c(F)cc23)[C@@H](C)C1
not met

Values compiled from ChEMBL document CHEMBL4354832.
